# Test system: SF-268
# EXPERIMENT_DESCRIPTION: Cytotoxicity against Homo sapiens (human) SF268 cells at 100 uM after 48 hr by SRB assay relative to control
# Type: cell-based
# CONDITION_LABEL: sf-268, 48 h
Overview of reported Activity across a group of compounds:
Report the value in % with no unit label.

Examples with their reported Activity follow.
COMPOUND	TESTED_SYSTEM	ENDPOINT_VALUE
N=C(N)c1ccc(NC(=O)CCCC(=O)Nc2ccc(C(=N)N)cc2)cc1	SF-268	121
c1cc(N2CCCN(c3ccc(C4=NCCCN4)cc3)CC2)ccc1C1=NCCCN1	SF-268	55
N=C(N)c1ccc(N2CCCN(c3ccc(C(=N)N)cc3)CC2)cc1	SF-268	94
N=C(N)c1ccc(OCc2cccc(COc3ccc(C(=N)N)cc3)c2)cc1	SF-268	0
N#Cc1ccc(N2CCCN(c3ccc(C#N)cc3)CC2)cc1	SF-268	101
N#Cc1ccc(N2CCN(c3ccc(C#N)cc3)CC2)cc1	SF-268	105
N=C(N)c1ccc(COc2ccccc2OCc2ccc(C(=N)N)cc2)cc1	SF-268	27
CCCCNC(=N)c1ccc(N2CCCN(c3ccc(C(=N)NCCCC)cc3)CC2)cc1	SF-268	101
N=C(NC1CC1)c1ccc(N2CCCN(c3ccc(C(=N)NC4CC4)cc3)CC2)cc1	SF-268	104
N=C(NC1CC1)c1ccc(N2CCN(c3ccc(C(=N)NC4CC4)cc3)CC2)cc1	SF-268	115

Challenge: Consider the compound shown here: N=C(N)c1ccc(NC(=O)CCCCC(=O)Nc2ccc(C(=N)N)cc2)cc1 What is its recorded Activity?
Response given: 52

Challenge: Consider the compound shown here: N=C(N)c1ccc(OC(=O)c2ccc(C(=O)Oc3ccc(C(=N)N)cc3)cc2)cc1 [BIS(4-CARBAMIMIDOYLPHENYL)TEREPHTHALATE] What is its recorded Activity?
Response given: 94

Challenge: Consider the compound shown here: c1cc(N2CCN(c3ccc(C4=NCCCN4)cc3)CC2)ccc1C1=NCCCN1 What is its recorded Activity?
Response given: 93
